Assay: qHTS assay to identify small molecule antagonists of the estrogen receptor beta (ER-beta) signaling pathway - cell viability counter screen (AID 1259382); also: nearly all actives have a fitted effect of over 55% in size
Conditions: ER-beta-UAS-bla HEK293T viability, CellTiter-Glo luminescence, 16 h; series mostly up to 92.4 µM
Results filed as inconclusive are left out. Active and inactive are the calls of the source. Calls follow the shape of the dose curve; as a rule, active = well fitted cell-killing curve with a large enough effect in the repeat runs; inconclusive = weak or mixed curves; inactive = flat fitted curve, though single readings scatter.
Possible outcomes: 1.0 for active, 0.0 for inactive

> print(dat)
                                    compound  category
 1  OC(Cc1ccccc1Cl)(Cn1[nH]cnc1=S)C1(Cl)CC1 (stereo not given)       0.0
 2    CCOC(=O)C(O)(c1ccc(Cl)cc1)c1ccc(Cl)cc1       0.0
 3         Cc1cc(C(C)(C)c2ccc(O)c(C)c2)ccc1O       0.0
 4    COc1ccc(C(c2ccc(OC)cc2)C(Cl)(Cl)Cl)cc1       0.0
 5  Cc1nnc2n1-c1sc(CCc3ccc(CC(C)C)cc3)cc1C(c1ccccc1Cl)=NC2C (stereo not given)       1.0
 6  c1ccc2c(c1)Sc1ccccc1N2CC1CN2CCC1CC2 (stereo not given)       1.0
 7  Cc1cc(C)c(C(=O)P(=O)(c2ccccc2)c2ccccc2)c(C)c1       1.0
 8  CO/C=C(/C(=O)OC)c1ccccc1Oc1cc(Oc2ccccc2C#N)ncn1       1.0
 9         ClC(Cl)=C(c1ccc(Cl)cc1)c1ccccc1Cl       0.0
10                            CCN(CC)C(=O)Cl       0.0

* * *

Molecular target: Acetylcholinesterase (Homo sapiens) (UniProt P22303)
Sequence (P22303 whole entry, looked up): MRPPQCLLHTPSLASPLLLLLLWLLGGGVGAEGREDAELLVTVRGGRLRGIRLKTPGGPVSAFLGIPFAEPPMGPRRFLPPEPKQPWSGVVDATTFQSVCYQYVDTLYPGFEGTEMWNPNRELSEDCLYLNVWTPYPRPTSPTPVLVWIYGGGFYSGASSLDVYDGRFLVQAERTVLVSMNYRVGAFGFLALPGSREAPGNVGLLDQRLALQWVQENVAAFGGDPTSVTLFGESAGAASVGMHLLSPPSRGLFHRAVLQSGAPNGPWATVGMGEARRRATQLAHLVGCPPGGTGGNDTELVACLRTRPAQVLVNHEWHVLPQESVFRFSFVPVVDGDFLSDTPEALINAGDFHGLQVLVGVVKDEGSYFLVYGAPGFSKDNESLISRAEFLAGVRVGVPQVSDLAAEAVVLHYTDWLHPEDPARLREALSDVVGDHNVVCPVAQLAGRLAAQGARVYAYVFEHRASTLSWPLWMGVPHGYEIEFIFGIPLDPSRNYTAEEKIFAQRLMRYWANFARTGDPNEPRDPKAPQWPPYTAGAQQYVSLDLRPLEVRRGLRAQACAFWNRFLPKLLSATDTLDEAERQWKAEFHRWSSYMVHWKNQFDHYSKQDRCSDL
Test: Acetylcholinesterase (AChE) small molecule antagonists: enzyme-based qHTS assay (AID 1347397); also: nearly all actives have a fitted effect of over 55% in size
Details: AChE enzyme activity inhibition; series mostly up to 115 µM
Excerpt: National Center for Advancing Translational Sciences [NCATS] Division of Preclinical Innovation [DPI] U.S. Environmental Protection Agency [EPA] National Institutes of Environmental Health Sciences [NIEHS] National Toxicology Program [NTP] U.S. Food and Drug Administration [FDA] Acetylcholinesterase (AChE) is the primary cholinesterase in the body that hydrolyzes a key neurotransmitter, acetylcholine. Inhibition of AChE activity can lead to neurotoxicity. […]
Active and inactive are the calls of the source. Calls come from the whole dose curve.
Classes used: active, inactive

> print(dat)
                                    compound  category
 1                CCCCOC(=O)COc1ccc(Cl)cc1Cl  inactive
 2              CC(C)(CO)[C@@H](O)C(=O)NCCCO  inactive
 3                             CCCCCCOC(C)=O  inactive
 4                     CC(C)(CO)[N+](=O)[O-]  inactive
 5      Oc1ccc(C(c2ccc(O)cc2)C(Cl)(Cl)Cl)cc1  inactive
 6                   CC/C=C\CC/C=C/C(OCC)OCC  inactive
 7    CCOC(=O)C(O)(c1ccc(Cl)cc1)c1ccc(Cl)cc1  inactive
 8  CCCNC(C)C(=O)Nc1ccccc1C (stereo not given)  inactive
 9                              O=C(O)C(=O)O  inactive
10                          Cc1ccc(C(=O)O)o1  inactive
11                                  O=CNNC=O  inactive
12                     C=Cc1ccc(C(C)(C)C)cc1  inactive
13            O=[N+]([O-])c1c(Cl)cc(Cl)cc1Cl  inactive
14          CC(O)C#CC(C)O (stereo not given)  inactive
15          CC(=O)Nc1ccc(N=Nc2cc(C)ccc2O)cc1    active
